Target: Melanocortin receptor 4 (Mus musculus, UniProt P56450)
Sequence (P56450 whole entry): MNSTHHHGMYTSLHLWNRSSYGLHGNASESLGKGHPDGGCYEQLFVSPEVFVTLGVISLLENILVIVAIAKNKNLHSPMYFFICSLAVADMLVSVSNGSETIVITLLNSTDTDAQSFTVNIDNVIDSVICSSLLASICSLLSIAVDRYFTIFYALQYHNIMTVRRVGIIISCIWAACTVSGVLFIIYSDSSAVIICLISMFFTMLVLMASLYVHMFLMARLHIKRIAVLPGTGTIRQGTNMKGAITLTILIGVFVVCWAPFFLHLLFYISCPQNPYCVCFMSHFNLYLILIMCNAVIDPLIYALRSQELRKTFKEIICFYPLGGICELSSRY
Test: Agonist activity at mouse MC4R expressed in HEK293 cells by beta-galactosidase reporter gene assay
Numbered stars: 1 amine (or outer) side, 2 acyl side, 3 side chain; on linkers, the order of the positions; unused ones are H or OH. Bridge positions count the residues as written; N and C are the ends. Square brackets hold non-standard residues; d marks the D form. Peptide text beside a SMILES is read from it. N(2-Aminoethyl)Gly = O=C(CN(CCN[*:3])[*:1])[*:2]; Adipoyl = O=C(CCCCC(=O)[*:2])[*:1]; Suc = O=C(CCC(=O)[*:2])[*:1]; Nphe = O=C(O)CNCc1ccccc1
OBSERVED_PROPERTY: pEC50
Answers are plain numbers, as −log10 of the molar value.

INSERT INTO measurements (compound, numeric_readout) VALUES
  ('N=C(N)NCCC[C@@H]1NC(=O)CN(Cc2ccccc2)C(=O)CN(Cc2ccccc2)C(=O)CCC(=O)NCCN(CC(N)=O)C(=O)[C@H](Cc2c[nH]c3ccccc23)NC1=O ([Nphe][Nphe]RW[N(2-Aminoethyl)Gly]-NH2; linker N-5 via Suc)', 5.71),
  ('NC(=O)CN1CCNC(=O)CCCCC(=O)N[C@@H](Cc2ccccc2)C(=O)N(Cc2ccccc2)CC(=O)N[C@@H](CCCN=C(N)N)C(=O)N[C@@H](Cc2c[nH]c3ccccc23)C1=O (F[Nphe]RW[N(2-Aminoethyl)Gly]-NH2; linker N-5 via Adipoyl)', 5.48),
  ('NC(=O)CN1CCNC(=O)CCC(=O)N[C@@H](Cc2ccccc2)C(=O)N(Cc2ccccc2)CC(=O)N[C@@H](CCCN=C(N)N)C(=O)N[C@@H](Cc2c[nH]c3ccccc23)C1=O (F[Nphe]RW[N(2-Aminoethyl)Gly]-NH2; linker N-5 via Suc)', 5.42),
  ('CC(=O)NCC(=O)N(CC(=O)N(CC(=O)N[C@@H](CCCNC(=N)N)C(=O)N[C@@H](Cc1c[nH]c2ccccc12)C(=O)NCC(N)=O)Cc1ccccc1)Cc1ccccc1 (HELM PEPTIDE1{[ac].G.[O=C(CN(Cc1ccccc1)[*:1])[*:2]].[O=C(CN(Cc1ccccc1)[*:1])[*:2]].R.W.G.[am]}$$$$V2.0)', 7.98),
  ('NC(=O)[C@H](Cc1c[nH]c2ccccc12)NC(=O)[C@H](CCCN=C(N)N)NC(=O)[C@@H](Cc1ccccc1)NC(=O)[C@@H](N)Cc1ccccc1', 7.15);

Request: pEC50, test system Melanocortin receptor 4 (Mus musculus, UniProt P56450), entry "N=C(N)NCCC[C@@H]1NC(=O)[C@@H](Cc2ccccc2)NC(=O)CN(Cc2ccccc2)C(=O)CCCCC(=O)NCCN(CC(N)=O)C(=O)[C@H](Cc2c[nH]c3ccccc23)NC1=O"
7.31
